Data origin, for the record: PubChem BioAssay (NCI)

EXPERIMENT: NCI Yeast Anticancer Drug Screen. Data for the CLN2oe strain (AID 163)
EXPERIMENTAL PARAMETERS: S. cerevisiae CLN2oe strain, at 33.0 µM
The panel holds about 79,000 compounds, 15% with a hit somewhere; the sample as a whole holds those more often. The source made the active and inactive calls. Cut-off read from the data, not from the text of the source: active = growth inhibition above about 70%; inactive = the rest.
Permitted responses: yes for active, no for inactive

INSERT INTO results (compound, class_name) VALUES
  ('COc1ccc2c(c1)[nH]c1c(/C=C/c3ccccc3)nccc12', 'no');

What did the test return for Cc1cc(O)c2c(c1)C(=O)C=C(Br)C2=O ?
yes

Try this compound next: COc1ccc(C(C#N)=C2C=CC(=NO)C=C2)cc1
no

Try this compound next: O/N=C/C1c2ccccc2-c2ccccc21
no

Try this compound next: CN[C@@H]1C[C@H]2O[C@@](C)([C@@H]1OC)n1c3ccccc3c3c4c(c5c6ccccc6n2c5c31)C(=O)N[C@@H]4O
no

Try this compound next: Oc1ccc(C=Nc2ccccc2O)cc1
no
